These measurements were taken from patent US11135214B2.

measurement-description: Food effect study, oral capsule, plasma PK in non-human primate
Assay type: in vivo, Cynomolgus monkeys
settings: cynomolgus monkey, plasma, oral, 3 mg/kg, Group 2 (fed), 3 mg/kg, 0 h, N=3; read-out: Mean plasma concentration
assay-metric: concentration at 0 h (ng/mL)

{"query-smiles": "Cc1cc(N2CCc3cc(F)ccc3C2)cc(C)c1NC(=O)CC(C)(C)C", "assay-metric": "concentration at 0 h", "endpoint-value": 0}

###

measurement-description: TMS crossover study, pharmacokinetic analysis
Assay type: in vivo, human
settings: male, human, plasma, oral, 20 mg, Overall (N=20), Range
assay-metric: Tmax

{"molecule": "Cc1cc(N2CCc3cc(F)ccc3C2)cc(C)c1NC(=O)CC(C)(C)C [Compound A]", "assay-metric": "Tmax", "endpoint-value": "1.9 to 12 h"}
